Assign inhibition to each entry below.
- method-description: inhibition of PEG-3 promoter-driven reporter – cell-based, HeLa, luciferase, CREF/GAPDH counter-screen panel, dose response (AID 624167)
- condition-description: CREF/GAPDH counter-screens; run 2, dose range 1, at 100 µM (top of the series)
Answer format: number, then unit.

Query CCC(=O)NC(c1ccc(C)cc1)c1ccc2cccnc2c1O (stereo not given) yields inhibition of 53.6%

Query "CCN(CC)S(=O)(=O)c1cccc(C(=O)N/N=C(\C)c2ccc(O)cc2O)c1" yields inhibition of -50.5%

Query "Cc1cccc(OCC(=O)NCC(=O)N/N=C/c2cc(Br)cc(Br)c2O)c1" yields inhibition of 74.4%

Query "O=c1c2ccccc2sc2nc(CCl)nn12" yields inhibition of 99.3%

Query "Cc1ccc(NC(=S)NC(=O)c2ccc(F)cc2)cc1S(=O)(=O)Nc1ccccc1Cl" yields inhibition of 55.6%

Query "COc1ccc(-n2c(O)c(/C=N/Nc3nc(C)cc(C)n3)c3ccccc3c2=O)cc1OC" yields inhibition of -21.1%

Query "CCc1ccc(/C=C2\SC(=S)N(CCCC(=O)Nc3cc(C)on3)C2=O)cc1" yields inhibition of 84.8%

Query "Oc1[nH]c2ccc(Br)cc2c1N=NC(=S)N1CCOCC1" yields inhibition of 63.5%

Query "COc1cccc(OC)c1C(=O)Nc1cc(C)nn1-c1nc2ccccc2[nH]1" yields inhibition of 54.4%

Query Cc1ccccc1CNC(=O)C1CCCN(c2nnc(C)c3c(C)n(-c4ccccc4)nc23)C1 (stereo not given) yields inhibition of 94.8%

---

- method-description: inhibition of PEG-3 promoter-driven reporter – cell-based, HeLa, luciferase, CREF/GAPDH counter-screen panel, dose response (AID 624167)
- condition-description: CREF/GAPDH counter-screens; run 2, dose range 1, at 100 µM (top of the series)
Classes by inhibition: low (below 60%), mid (60% to below 80%), high (80% or more)

Q: Which bin, given its inhibition, does "O=C(Nc1ccc(Cc2ccncc2)cc1)c1ccc([N+](=O)[O-])o1" occupy?
A: high

Q: Which bin, given its inhibition, does "Cc1ccc(/C=C2\SC(=S)N(CCCC(=O)Nc3ccccn3)C2=O)cc1" occupy?
A: mid

Q: Which bin, given its inhibition, does "O=C(N/N=C/c1ccc(Cl)c([N+](=O)[O-])c1)c1cc(-c2ccc3c4c(cccc24)CC3)n[nH]1" occupy?
A: high

Q: Which bin, given its inhibition, does "C(=N\Nc1ccc2ccccc2n1)/c1ccc2c(c1)OCCO2" occupy?
A: high

Q: Which bin, given its inhibition, does CC(C)CCCCCCCCCCCCC(=O)NCC(=O)NC1C(O)C(O)C(Nc2ncnc3nc[nH]c23)OC1C(O)CO (configuration not stated) occupy?
A: high

Q: Which bin, given its inhibition, does "CCOC(=O)c1c(SCCN2CCCCC2)n(-c2ccccc2)c(=S)n(-c2ccccc2)c1=O" occupy?
A: high

Q: Which bin, given its inhibition, does COc1ccc(/C=C2/CCCC(CN(C)C)C2=O)cc1 (configuration not stated) occupy?
A: mid

Q: Which bin, given its inhibition, does NC(C(=O)O)C1ON=C(Cl)C1O (configuration not stated) occupy?
A: mid

Q: Which bin, given its inhibition, does "CN=c1sc2c(n1C)C(=O)c1ccccc1C2=O" occupy?
A: high

Q: Which bin, given its inhibition, does "O=C(N/N=C\c1c(O)ccc2ccccc12)c1ccc(Cn2cccn2)o1" occupy?
A: low

Q: Which bin, given its inhibition, does "O=C(CCn1cnc(-c2ccccc2)c1-c1ccccc1)N/N=C/c1ccccc1O" occupy?
A: low

Q: Which bin, given its inhibition, does "O=C(N/N=C/c1sc(N2CCOCC2)nc1-c1ccccc1)c1cccc(S(=O)(=O)N2CCCC2)c1" occupy?
A: low

Q: Which bin, given its inhibition, does "CC(C)(C)c1ccc(Oc2ccc(N)cc2)cc1" occupy?
A: high

Q: Which bin, given its inhibition, does CC1CC(C)C(=O)C(C(CC2CC(=O)NC(=O)C2)OC(=O)CC(=O)c2ccccc2)C1 (configuration not stated) occupy?
A: high

Q: Which bin, given its inhibition, does CS(=O)(=O)Nc1cccc(NC(=O)C2Cc3c(-c4cccc(F)c4)ccnc3O2)c1 (configuration not stated) occupy?
A: mid

Q: Which bin, given its inhibition, does COc1ccc(N(C(=O)CCl)C(C(=O)NC2CCCCC2)c2cccnc2)cc1 (configuration not stated) occupy?
A: high

Q: Which bin, given its inhibition, does "Cc1ccsc1/C=N/Nc1cccc(C(=O)O)c1" occupy?
A: high

Q: Which bin, given its inhibition, does "Cc1cc(C)c2sc(NNC(=O)c3ccc(S(=O)(=O)N4CCc5ccccc5C4)cc3)nc2c1" occupy?
A: mid

Q: Which bin, given its inhibition, does "Cc1cc(C(=O)Nc2cccc(C(=O)O)c2)oc1C" occupy?
A: high

Q: Which bin, given its inhibition, does CC(C)CC1C(=O)N(Cc2cn(Cc3ccco3)nn2)CCS(=O)(=O)N1Cc1ccc(-c2ccc(F)cc2)cc1 (configuration not stated) occupy?
A: low

Q: Which bin, given its inhibition, does "OCCCNc1nccc(-c2cc(Nc3cccc(Cl)c3)ncn2)n1" occupy?
A: low

Q: Which bin, given its inhibition, does COC(=O)C1C=CC(OC2OC(COC(C)=O)C(OC(C)=O)C(OC(C)=O)C2OC(C)=O)n2c(=O)n(-c3ccccc3)c(=O)n21 (configuration not stated) occupy?
A: high

Q: Which bin, given its inhibition, does "O=C(COc1ccc2c(c1)CCC2)Nc1ccccn1" occupy?
A: high

Q: Which bin, given its inhibition, does "CCc1ccc(/C=C2\SC(=S)N(CCCC(=O)NC3=NCCS3)C2=O)cc1" occupy?
A: mid

Q: Which bin, given its inhibition, does "CCOc1cccc(/C=N/NC(=S)Nc2cc(S(=O)(=O)N3CCOCC3)ccc2N2CCOCC2)c1O" occupy?
A: low

Q: Which bin, given its inhibition, does "COc1cccc(/C=N/NC(=O)c2c(C)nc3ccc(Cl)cn23)c1O" occupy?
A: low

Q: Which bin, given its inhibition, does "O=C1C=CC(=O)N1c1ccc(-c2nc3ccccc3o2)cc1" occupy?
A: high

Q: Which bin, given its inhibition, does CCCC(=O)NC(c1ccccc1)c1ccc2cccnc2c1O (configuration not stated) occupy?
A: low

Q: Which bin, given its inhibition, does Cc1ccc(C(C[N+](=O)[O-])Sc2ccc(N)cc2)cc1 (configuration not stated) occupy?
A: high

Q: Which bin, given its inhibition, does CN(C)CC1CCC/C(=C\c2ccc(OC(=O)c3ccc(Cl)cc3)cc2)C1=O (configuration not stated) occupy?
A: high

Q: Which bin, given its inhibition, does CC(=O)NC(c1ccc(Cl)cc1)c1ccc2cccnc2c1O (configuration not stated) occupy?
A: mid

Q: Which bin, given its inhibition, does "O=C(CCSc1nc2ccccc2s1)N/N=C/c1c(O)ccc2ccccc12" occupy?
A: low

Q: Which bin, given its inhibition, does "COc1ccccc1Nc1nc(-c2sc(NC(=O)c3ccco3)nc2C)cs1" occupy?
A: low

Q: Which bin, given its inhibition, does COC1CC(C)C(OC)c2cc(O)cc(c2O)NC(=O)C(C)=CC=CC(C)C(OC(N)=O)C(C)=CC(C)C1OC (configuration not stated) occupy?
A: high

Q: Which bin, given its inhibition, does Cc1cc(NC(c2ccc(Cl)cc2)c2ccc3cccnc3c2O)no1 (configuration not stated) occupy?
A: low

Q: Which bin, given its inhibition, does O=C(c1ccco1)N1CCN(C(c2ccccc2Cl)c2nnnn2Cc2cccs2)CC1 (configuration not stated) occupy?
A: mid

Q: Which bin, given its inhibition, does "CCCn1nc(C(=O)Nc2nc(-c3ccccn3)cs2)c2ccccc2c1=O" occupy?
A: low

Q: Which bin, given its inhibition, does "O=C(CNc1ccccc1)N/N=C/c1c(O)ccc2ccccc12" occupy?
A: mid
